- Test system: Saccharomyces cerevisiae;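 further: PSI is a weighted mean of sequencing reads over stability bins, variants kept only with over 10 reads, mCherry proximal and sfGFP distal, peptide attached via GGGS linker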
- Assay Overview: protein stability index of tFT-peptide fusion (C-terminal peptide) (PSI (0-1 scale)); higher = more stable (slower turnover)
- Experimental Parameters: genetic background: doa10 deletion; temperature: 30 C
Measurement Type: protein stability index
Provide a numeric answer; units are not to be included.

Dear colleague, please send me the reported protein stability index for FRLCQRPVFLLS when you can. 0.182

Dear colleague, please send me the reported protein stability index for VVRYGGVIAFRG when you can. 0.579

Dear colleague, please send me the reported protein stability index for GLLAFVCISHTS when you can. 0.312

Dear colleague, please send me the reported protein stability index for LVLFYLWSSVWA when you can. 0.251

Dear colleague, please send me the reported protein stability index for GGGHGSSCSVCD when you can. 0.646

Dear colleague, please send me the reported protein stability index for WFALFYFLVSAF when you can. 0.157

Dear colleague, please send me the reported protein stability index for YILRLMMEGICL when you can. 0.422

Dear colleague, please send me the reported protein stability index for SLVVMGSLWLRI when you can. 0.468

Dear colleague, please send me the reported protein stability index for PFARIIDILLVI when you can. 0.298

Dear colleague, please send me the reported protein stability index for VRLYLRSCVVES when you can. 0.181

Dear colleague, please send me the reported protein stability index for LVYCWFAEYFLV when you can. 0.0883

Dear colleague, please send me the reported protein stability index for FRCRFLLPFYSV when you can. 0.403

Dear colleague, please send me the reported protein stability index for SVVYCRMRVHFV when you can. 0.263

Dear colleague, please send me the reported protein stability index for FLLYVITYRSET when you can. 0.161

Dear colleague, please send me the reported protein stability index for DLIGSVRRLFCV when you can. 0.18

Dear colleague, please send me the reported protein stability index for RFICMMYLVYLC when you can. 0.0601

Dear colleague, please send me the reported protein stability index for RGCLVHSGFFIV when you can. 0.212

Dear colleague, please send me the reported protein stability index for LGRLDYKRMKRA when you can. 0.477

Dear colleague, please send me the reported protein stability index for FFVWLGWGMFYG when you can. 0.408

Dear colleague, please send me the reported protein stability index for VFVMRDGFLRKV when you can. 0.301

Dear colleague, please send me the reported protein stability index for FPGPPSPPPSYF when you can. 0.643

Dear colleague, please send me the reported protein stability index for GFLAVTVACVWR when you can. 0.13

Dear colleague, please send me the reported protein stability index for IQICLNRLRLFH when you can. 0.251

Dear colleague, please send me the reported protein stability index for ACSRKPIWVTWL when you can. 0.259

Dear colleague, please send me the reported protein stability index for LRSLLIIYLLIF when you can. 0.203

Dear colleague, please send me the reported protein stability index for NNGLLLDILIKA when you can. 0.248

Dear colleague, please send me the reported protein stability index for KRMVEKNKKKIN when you can. 0.153

Dear colleague, please send me the reported protein stability index for MSIWKIFIWRLG when you can. 0.132

Dear colleague, please send me the reported protein stability index for RLFSPPVLATPS when you can. 0.519

Dear colleague, please send me the reported protein stability index for YPSCPINFICLC when you can. 0.29

Dear colleague, please send me the reported protein stability index for DVLLVVVLGRFL when you can. 0.322

Dear colleague, please send me the reported protein stability index for ARRGHNCAAVFL when you can. 0.65

Dear colleague, please send me the reported protein stability index for FGGFYGRRVLII when you can. 0.182

Dear colleague, please send me the reported protein stability index for PPRCLLPPPSRS when you can. 0.72

Dear colleague, please send me the reported protein stability index for SLVPSIFLFRIF when you can. 0.323

Dear colleague, please send me the reported protein stability index for NFCVLLQFCVLV when you can. 0.364

Dear colleague, please send me the reported protein stability index for SSLTFTFAILLY when you can. 0.369

Dear colleague, please send me the reported protein stability index for VECVCVVVVRRM when you can. 0.266

Dear colleague, please send me the reported protein stability index for VLRLVLFVLISV when you can. 0.285

Dear colleague, please send me the reported protein stability index for LFFFVFFVLFSV when you can. 0.304

Dear colleague, please send me the reported protein stability index for SWGEQDRLTGYI when you can. 0.669
